Protocol Notes: Selectivity index, ratio of CC50 for african green monkey Vero cells to EC50 for Enterovirus 71
Type: toxicity, cell-based
Condition Details: read-out: Ratio CC50/EC50
Exercise: state measured selectivity ratio for each of the molecules provided.

The molecule `Cc1cccc(Cl)c1NNC(=O)c1ccc(C(C)(C)C)cc1` showed selectivity ratio equal to 62.3

The molecule `CCCc1ccc(C(=O)NNc2c(C)cccc2Cl)cc1` showed selectivity ratio equal to 87.2

The molecule `CCc1ccc(C(=O)NNc2c(Cl)cccc2Cl)cc1` showed selectivity ratio equal to > 275

The molecule `Cc1ccc(C(=O)NNc2c(Br)cccc2Br)cc1` showed selectivity ratio equal to 13.5

The molecule `CC(C)(C)c1ccc(C(=O)NNc2c(Cl)cccc2Cl)cc1` showed selectivity ratio equal to 65.6

The molecule `CCCc1ccc(C(=O)NNc2c(C)cccc2C)cc1` showed selectivity ratio equal to > 298

The molecule `CC(C)S(=O)(=O)n1c(N)nc2ccc(/C(=N/O)c3ccccc3)cc21` showed selectivity ratio equal to > 1490

The molecule `CC(C)(C)c1ccc(C(=O)NNc2c(F)cccc2F)cc1` showed selectivity ratio equal to 68.4

The molecule `COc1ccc(C(=O)NNc2c(C)cccc2C)cc1` showed selectivity ratio equal to > 24

The molecule `Cc1ccc(C(=O)NNc2c(Cl)cccc2Cl)cc1` showed selectivity ratio equal to > 212

The molecule `Cc1cccc(Cl)c1NNC(=O)c1ccc(N(C)C)cc1` showed selectivity ratio equal to 332

The molecule `Cc1ccc(C(=O)NNc2c(C)cccc2Cl)cc1` showed selectivity ratio equal to > 22.5

The molecule `CCCc1ccc(C(=O)NNc2c(Cl)cccc2Cl)cc1` showed selectivity ratio equal to > 589

The molecule `CN(C)c1ccc(C(=O)NNc2c(Br)cccc2Br)cc1` showed selectivity ratio equal to > 6460

The molecule `Cc1cc(CCCCCCCOc2ccc(C3=NCCO3)cc2)on1` showed selectivity ratio equal to 7.6

The molecule `COc1ccc(C(=O)NNc2c(Br)cccc2Br)cc1` showed selectivity ratio equal to > 60.2

The molecule `CCOc1ccc(C(=O)NNc2c(F)cccc2F)cc1` showed selectivity ratio equal to > 4.1

The molecule `CC(C)(C)c1ccc(C(=O)NNc2c(Br)cccc2Br)cc1` showed selectivity ratio equal to > 2350

The molecule `CSc1ccc(C(=O)NNc2c(C)cccc2Cl)cc1` showed selectivity ratio equal to 17.4

The molecule `CCOc1ccc(C(=O)NNc2c(Cl)cccc2Cl)cc1` showed selectivity ratio equal to > 746

The molecule `CCOc1ccc(C(=O)NNc2c(Br)cccc2Br)cc1` showed selectivity ratio equal to > 522

The molecule `CCc1ccc(C(=O)NNc2c(C)cccc2C)cc1` showed selectivity ratio equal to 86.2

The molecule `COc1cccc(OC)c1NNC(=O)c1ccc(C(C)(C)C)cc1` showed selectivity ratio equal to > 23.4

The molecule `Cc1cccc(C)c1NNC(=O)c1ccc(C(C)(C)C)cc1` showed selectivity ratio equal to 978

The molecule `Cc1ccc(C(=O)NNc2c(C)cccc2C)cc1` showed selectivity ratio equal to > 59.2
